- Tested on: HBV
- test: Secreted HBeAg by immunoassay in HBV-infected PHH
- Type: cell-based
- study-conditions: Hepatitis B virus, read-out: HBeAg EC50, PHH donor Hu4167; HBV GTD; treated every three to four days for 14 days
measured-quantity: pEC50
Kindly note that pEC50 refers to -log10 of the concentration in mol/L and answer with the value alone.

Qu. Which pEC50 reading was recorded for the compound CCOC(=O)c1ccnc(CNCC(=O)N(CC)CCN(C)C)c1 [GS-5801] ?
Ans. 6.82

* * *

- tested-target: UniProt:O96028
- Sequence (O96028 1-1365): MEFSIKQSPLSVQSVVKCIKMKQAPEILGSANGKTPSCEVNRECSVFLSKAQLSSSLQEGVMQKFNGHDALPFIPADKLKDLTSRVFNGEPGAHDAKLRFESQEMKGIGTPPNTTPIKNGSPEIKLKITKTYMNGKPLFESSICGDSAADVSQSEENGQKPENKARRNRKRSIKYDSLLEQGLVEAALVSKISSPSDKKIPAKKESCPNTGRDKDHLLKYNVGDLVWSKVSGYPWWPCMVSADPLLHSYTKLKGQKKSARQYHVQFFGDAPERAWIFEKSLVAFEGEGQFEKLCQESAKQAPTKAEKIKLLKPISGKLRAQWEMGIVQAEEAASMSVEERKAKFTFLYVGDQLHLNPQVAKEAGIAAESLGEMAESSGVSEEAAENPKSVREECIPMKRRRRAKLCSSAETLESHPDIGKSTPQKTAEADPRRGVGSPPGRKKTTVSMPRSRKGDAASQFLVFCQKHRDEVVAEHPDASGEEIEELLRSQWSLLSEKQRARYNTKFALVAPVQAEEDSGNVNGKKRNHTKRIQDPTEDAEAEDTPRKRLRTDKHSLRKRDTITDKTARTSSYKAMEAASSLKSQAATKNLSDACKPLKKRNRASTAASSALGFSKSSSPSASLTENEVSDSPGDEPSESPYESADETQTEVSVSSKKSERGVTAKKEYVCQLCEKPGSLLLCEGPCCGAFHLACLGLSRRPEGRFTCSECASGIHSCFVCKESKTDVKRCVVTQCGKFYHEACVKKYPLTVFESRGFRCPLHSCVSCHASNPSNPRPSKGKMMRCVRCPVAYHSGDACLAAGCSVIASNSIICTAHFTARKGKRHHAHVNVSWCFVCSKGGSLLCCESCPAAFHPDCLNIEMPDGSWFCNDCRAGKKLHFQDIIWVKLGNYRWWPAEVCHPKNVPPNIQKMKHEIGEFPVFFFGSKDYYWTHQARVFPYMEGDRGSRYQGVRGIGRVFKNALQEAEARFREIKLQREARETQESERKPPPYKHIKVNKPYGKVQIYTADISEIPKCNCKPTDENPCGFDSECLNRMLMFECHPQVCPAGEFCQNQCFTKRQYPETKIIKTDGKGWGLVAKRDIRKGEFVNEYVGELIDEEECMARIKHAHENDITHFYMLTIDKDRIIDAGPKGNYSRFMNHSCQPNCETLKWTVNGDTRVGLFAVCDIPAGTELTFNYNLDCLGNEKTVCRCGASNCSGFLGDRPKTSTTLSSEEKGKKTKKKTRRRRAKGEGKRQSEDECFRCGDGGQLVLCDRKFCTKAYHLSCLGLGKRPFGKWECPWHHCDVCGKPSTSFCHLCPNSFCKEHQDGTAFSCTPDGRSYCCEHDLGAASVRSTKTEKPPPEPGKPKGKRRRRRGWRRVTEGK
measured-quantity: IC50

Qu. Which IC50 reading was recorded for the compound CCN(CCN(C)C)C(=O)CNCc1cc(C(=O)O)ccn1 ?
Ans. > 100 µM
